Source of measurements: patent US9957271B2

- Target of assay: SIRT1 (Homo sapiens, UniProt Q96EB6)
- Sequence (Q96EB6 whole entry): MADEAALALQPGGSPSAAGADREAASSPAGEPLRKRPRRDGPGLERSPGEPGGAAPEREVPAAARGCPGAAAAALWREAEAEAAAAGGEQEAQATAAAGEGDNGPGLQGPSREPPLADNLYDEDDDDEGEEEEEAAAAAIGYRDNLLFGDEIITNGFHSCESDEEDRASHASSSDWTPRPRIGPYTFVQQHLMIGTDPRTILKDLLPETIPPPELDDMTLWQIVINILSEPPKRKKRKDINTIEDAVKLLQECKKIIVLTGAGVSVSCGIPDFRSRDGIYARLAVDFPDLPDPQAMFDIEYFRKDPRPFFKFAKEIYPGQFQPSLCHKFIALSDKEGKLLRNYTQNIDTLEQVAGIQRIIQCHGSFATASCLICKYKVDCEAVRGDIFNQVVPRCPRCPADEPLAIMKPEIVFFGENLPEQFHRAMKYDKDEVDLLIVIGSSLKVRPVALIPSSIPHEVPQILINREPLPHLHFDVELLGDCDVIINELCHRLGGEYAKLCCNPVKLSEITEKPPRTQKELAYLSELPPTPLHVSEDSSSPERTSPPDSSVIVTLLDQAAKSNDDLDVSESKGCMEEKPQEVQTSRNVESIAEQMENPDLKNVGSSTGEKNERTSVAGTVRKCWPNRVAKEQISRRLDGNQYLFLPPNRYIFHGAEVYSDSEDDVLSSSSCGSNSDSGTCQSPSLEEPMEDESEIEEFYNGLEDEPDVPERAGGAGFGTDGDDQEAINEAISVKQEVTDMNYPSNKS
- Procedure details: TAMRA based mass spectrometry assay of SIRT1 activity
- Format: biochemical
- Experimental setup: TAMRA assay; percent maximum fold activation; read-out: TAMRA % Fold Act
Could you please report measured Emax for the items listed next?

Reference set (3 entries):
[[record]]
compound = "Cc1cc(C)nc(NC(=O)c2c(C)nc3ccc(-c4ccccc4OC[C@H](O)CO)nn23)c1"
result = "≥ 350%"

[[record]]
compound = "CCOc1ccc(NC(=O)c2c(C)nc3ccc(-c4ccccc4Cl)nn23)nn1"
result = "< 350%"

[[record]]
compound = "Cc1cccc(NC(=O)c2c(O)nc3ccc(-c4ccccc4C(F)(F)F)nn23)n1"
result = "< 350%"


Hi! Can you tell me Emax for each of these compounds?
1. Cc1cc(C)nc(NC(=O)c2cnc3ccc(-c4ccccc4C(F)(F)F)nn23)n1
2. O=C(Nc1ncccc1N1CCOCC1)c1cnc2ccc(-c3ccccc3C(F)(F)F)nn12
3. COc1cc(OC)nc(NC(=O)c2cnc3ccc(-c4ccccc4C(F)(F)F)nn23)n1
4. Cc1cnc(C(=O)Nc2cnn3ccc(-c4ccccc4OC(F)(F)F)nc23)cn1
5. Cc1ccnnc1NC(=O)c1cnc2c(C)cc(-c3ccccc3C(F)(F)F)nn12

1. ≥ 350%
2. < 350%
3. ≥ 350%
4. ≥ 350%
5. < 350%
